B1: FCHSD1 (parent)
chain: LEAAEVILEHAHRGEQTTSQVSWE

# Variants of: B1
# MEASUREMENT DESCRIPTION: protein stability index of a GFP-peptide fusion (GPS, HEK-293T) (PSI 1-6); higher = more stable;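 further: lentivirally expressed fusions sorted by FACS into six bins by GFP to DsRed ratio, PSI derived from sequencing read proportions per bin multiplied by bin number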
# TEST CONDITIONS: c terminus: a fixed tail appended
Hi, to clarify the labels: Criterion met covers protein stability index from 4 upward, Criterion not met covers anything below 4.

| MUTATION LABEL | ASSIGNED LABEL |
| --- | --- |
| H10C | Criterion not met |
| A4M | Criterion not met |
| T18K | Criterion met |
| A4F | Criterion not met |
| T18M | Criterion not met |
| A4D | Criterion not met |
| S19F | Criterion not met |
| L8A | Criterion met |
| E24W | Criterion not met |
| A4C | Criterion met |
| A3M | Criterion not met |
